# Tested on: MX1
# procedure details: Cytotoxicity against human MX1 cells after 72 hrs by SRB assay
# Assay type: functional, cell-based
# condition details: MX1, 72 h
quantity measured: IC50 (nM)
Response body: numeric value in nM, unit text excluded.

Ask: What value of measured IC50 is listed for Cc1cccc2c(Nc3cc(COC(=O)Nc4ccc(N(CCCl)CCCl)cc4)cc(NC(=O)OC(C)(C)C)c3)c3ccccc3nc12 ?
Result: 5930

Ask: What value of measured IC50 is listed for COc1ccc(Nc2c3ccccc3nc3c(C)cccc23)cc1NC(=O)Oc1ccc(N(CCCl)CCCl)cc1 ?
Result: 138

Ask: What value of measured IC50 is listed for Cc1ccc(Nc2c3ccccc3nc3ccccc23)cc1NC(=O)Oc1ccc(N(CCCl)CCCl)cc1 ?
Result: 214

Ask: What value of measured IC50 is listed for COc1ccc(NC(=O)Oc2ccc(N(CCCl)CCCl)cc2)cc1Nc1c2ccccc2nc2c(C)cccc12 ?
Result: 338
